molecular target: Human 5HT1A receptor (Homo sapiens, UniProt P08908); construct: expressed in transfected cells; host or cells: L929 cells (stably transfected); experiment: Binding experiment for 5-HT1A receptor ([3H]8OHDPAT); details: transfected L929 cell membranes, [3H]8OHDPAT
Sequence (P08908 whole entry): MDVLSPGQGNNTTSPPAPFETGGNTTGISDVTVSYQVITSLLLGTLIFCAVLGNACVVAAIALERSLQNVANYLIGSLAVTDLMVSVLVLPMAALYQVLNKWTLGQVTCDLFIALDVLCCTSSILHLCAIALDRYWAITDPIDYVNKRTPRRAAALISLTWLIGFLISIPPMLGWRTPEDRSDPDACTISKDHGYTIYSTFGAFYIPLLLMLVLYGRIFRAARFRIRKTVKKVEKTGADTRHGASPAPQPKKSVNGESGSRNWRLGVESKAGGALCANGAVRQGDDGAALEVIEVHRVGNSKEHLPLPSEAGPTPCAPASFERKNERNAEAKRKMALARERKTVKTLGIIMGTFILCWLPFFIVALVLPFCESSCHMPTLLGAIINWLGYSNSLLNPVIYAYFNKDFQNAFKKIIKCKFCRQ
Is pIC50 5-HT1A at least 8? Then criterion met. If not, criterion not met.

# molecule, category-label
data = [
    ("COc1cc2c(cc1OC)C1=NOC(CN3CCC(c4c[nH]c5ccc(Cl)cc45)CC3)C1CO2 (racemic)", "criterion met"),
    ("COc1cc2c(cc1OC)C1=NOC(CN3CCC(c4c[nH]c5c(F)cccc45)CC3)C1CO2 (racemic)", "criterion not met"),
    ("COc1cc2c(cc1OC)C1=NOC(CN3CCC(c4c[nH]c5ccc(N)cc45)CC3)C1CO2 (racemic)", "criterion not met"),
    ("COc1cc2c(cc1OC)C1=NOC(CN3CC=C(c4c[nH]c5ccc(Cl)cc45)CC3)C1CO2 (racemic)", "criterion met"),
    ("COc1cc2c(cc1OC)C1=NOC(CN3CC=C(c4c[nH]c5ccc(NS(C)(=O)=O)cc45)CC3)C1CO2.O=C(O)C(F)(F)F (racemic)", "criterion met"),
    ("COc1cc2c(cc1OC)C1=NOC(CN3CCC(c4c[nH]c5ccc(F)cc45)CC3)C1CO2 (single isomer, unassigned) [Compound 11]", "criterion met"),
    ("COc1cc2c(cc1OC)C1=NOC(CN3CCC(Cc4c[nH]c5ccc(F)cc45)CC3)C1CO2 (racemic)", "criterion not met"),
    ("COc1cc2c(cc1OC)C1=NOC(CN3CC=C(c4c[nH]c5ccc(NC(=O)Nc6ccccc6)cc45)CC3)C1CO2 (racemic)", "criterion met"),
    ("Fc1ccc2[nH]cc(C3=CCN(CC4ON=C5c6cc7c(cc6OCC54)OCCO7)CC3)c2c1 (single isomer, unassigned)", "criterion met"),
    ("COc1cc2c(cc1OC)C1=NOC(CN3CCC(c4c[nH]c5ccc(F)cc45)CC3)C1CO2 (racemic) [Compound 2]", "criterion met"),
]
